- assay.target: Voltage-gated inwardly rectifying potassium channel KCNH2 (Homo sapiens, UniProt Q12809)
- Sequence (Q12809 whole entry): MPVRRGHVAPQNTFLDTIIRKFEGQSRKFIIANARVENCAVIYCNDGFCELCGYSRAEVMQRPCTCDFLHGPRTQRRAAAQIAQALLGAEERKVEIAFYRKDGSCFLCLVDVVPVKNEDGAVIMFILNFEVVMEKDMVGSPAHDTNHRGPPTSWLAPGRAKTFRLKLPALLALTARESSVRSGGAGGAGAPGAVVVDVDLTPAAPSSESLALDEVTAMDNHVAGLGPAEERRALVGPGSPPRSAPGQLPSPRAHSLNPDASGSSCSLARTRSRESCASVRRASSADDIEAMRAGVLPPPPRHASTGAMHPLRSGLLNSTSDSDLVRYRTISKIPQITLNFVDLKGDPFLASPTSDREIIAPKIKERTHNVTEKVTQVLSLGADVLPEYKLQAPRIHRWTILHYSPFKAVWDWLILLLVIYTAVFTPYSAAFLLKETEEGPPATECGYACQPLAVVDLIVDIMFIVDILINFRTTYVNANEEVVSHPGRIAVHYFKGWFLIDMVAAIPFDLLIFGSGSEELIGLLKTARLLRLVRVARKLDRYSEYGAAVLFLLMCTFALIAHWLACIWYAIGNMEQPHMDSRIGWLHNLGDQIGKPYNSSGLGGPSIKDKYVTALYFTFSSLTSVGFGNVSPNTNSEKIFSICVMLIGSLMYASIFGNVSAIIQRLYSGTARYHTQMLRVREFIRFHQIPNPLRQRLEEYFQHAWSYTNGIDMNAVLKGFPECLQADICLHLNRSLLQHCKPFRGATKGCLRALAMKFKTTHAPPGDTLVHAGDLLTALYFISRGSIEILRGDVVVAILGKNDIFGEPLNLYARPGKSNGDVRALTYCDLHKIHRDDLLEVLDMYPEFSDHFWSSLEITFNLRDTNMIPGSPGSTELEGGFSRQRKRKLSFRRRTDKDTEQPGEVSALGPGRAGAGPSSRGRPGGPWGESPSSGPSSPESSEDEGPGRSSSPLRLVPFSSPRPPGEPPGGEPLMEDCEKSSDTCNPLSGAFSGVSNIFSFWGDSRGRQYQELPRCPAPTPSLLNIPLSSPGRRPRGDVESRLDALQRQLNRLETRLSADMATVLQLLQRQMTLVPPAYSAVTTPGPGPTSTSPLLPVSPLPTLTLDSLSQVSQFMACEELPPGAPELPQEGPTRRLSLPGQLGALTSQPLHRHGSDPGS
readout.kind: pIC50
Here pIC50 is given on a logarithmic scale as minus log10 of the concentration in mol/L.

Fill in pIC50 for O=C(CCCC(=O)c1cccc([N+](=O)[O-])c1)NC1CCCC1 tested with Voltage-gated inwardly rectifying potassium channel KCNH2 (Homo sapiens, UniProt Q12809).
4.69

Determine reported pIC50 for O=C(CCNC(=O)c1cccc([N+](=O)[O-])c1)NC1CCOC1=O (configuration not stated) ; test system: Voltage-gated inwardly rectifying potassium channel KCNH2 (Homo sapiens, UniProt Q12809).
3.04

Answer briefly: pIC50 recorded on Voltage-gated inwardly rectifying potassium channel KCNH2 (Homo sapiens, UniProt Q12809) for O=C(CCNC(=O)c1cccc([N+](=O)[O-])c1)Nc1nc(=O)[nH]cc1F
3.45

Would you please give the reported pIC50 of O=C(CSc1nc2cc([N+](=O)[O-])ccc2[nH]1)Nc1ccc(Oc2ccccc2)cc1 with Voltage-gated inwardly rectifying potassium channel KCNH2 (Homo sapiens, UniProt Q12809)?
5.08

State recorded pIC50 with Voltage-gated inwardly rectifying potassium channel KCNH2 (Homo sapiens, UniProt Q12809), entry O=C(CCCS(=O)(=O)c1ccccc1)Nc1cc[nH]c(=O)n1 , no comment.
4.17

====

- assay.target: Voltage-gated inwardly rectifying potassium channel KCNH2 (Homo sapiens)
pIC50: −log10 of the molar value.
Label class 1 when pIC50 is at or above 6; anything below gets class 0.

Determine whether this compound has pIC50 no lower than 6: CCCCOc1ccc(Cl)c(OCCCC)c1/N=N/c1c(O)ccc2ccccc12
class 1

Given O=C(CCCS(=O)(=O)c1ccccc1)NC1CCOC1=O (configuration not stated) , state whether its pIC50 is at least 6.
class 0

Has O=C(CCCS(=O)(=O)c1ccccc1)Nc1nc(=O)[nH]cc1F a recorded pIC50 greater than or equal to 6?
class 0

Confirm if pIC50 reported for the compound Cc1ccc(N(C)C(=O)c2ccc3c(c2)CC(c2ccc(Cl)cc2)OC3=O)cc1C (configuration not stated) is 6 or above.
class 0

Record CCCCOc1cc(Cl)c(/N=N/c2c(O)ccc3ccccc23)c(OCCCC)c1 ; criterion: pIC50 no lower than 6. Met?
class 1

Confirm if pIC50 reported for the compound Cc1ccc(NC(=O)c2ccc3c(c2)CC(c2ccc(Cl)cc2)OC3=O)cc1C (configuration not stated) is 6 or above.
class 0

These data points were gathered from ChEMBL document CHEMBL4312019.
